List of PBM binding z-score values.
- System: RARb homodimer (NR concentration 270 nM)
- testDescription: PBM binding z-score (relative to random genomic background probes); higher = stronger binding; sequences stand for … in GC…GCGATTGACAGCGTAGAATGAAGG

| biosequence | PBM binding z-score |
| --- | --- |
| ACTATTAGTTGACACGAGGGCAACCGATAGGTTG | 1.76 |
| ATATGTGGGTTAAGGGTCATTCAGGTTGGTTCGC | 3.84 |
| TAGCCTAGGTAATTGGGCCAGTATAGTACGCATC | -0.403 |
| TCTTGTAGATCAAGCAGGTTAAAAAAGCCTGAGT | 0.112 |

###

List of PBM binding z-score values.
- Tested on: LXRb homodimer (NR concentration 270 nM)
- testDescription: PBM binding z-score (relative to random genomic background probes); higher = stronger binding; sequences stand for … in GC…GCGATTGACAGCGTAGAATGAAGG

| biosequence | PBM binding z-score |
| --- | --- |
| AATACAGGGTCATCGTAGGACAGAGTACGCACAG | 1.66 |
| ACTTTTAGTTGAGACGAGGGCAACCGATAGGTTG | 0.689 |
| ATCAAAAGGTCGACGAGGTGAGTATACACCGTTT | 0.587 |
| TCATATCGGTAAATGCTAGGTGAAAGTCCGATCT | 0.0158 |
| GCTCCTAGGTCAGGTTGGTCAGCTAACGGGTACG | 0.0222 |
| CGAACTAGGTCATTTACAGGACAGTGAATAGTAA | 0.887 |
| CCGAGTAGGTTATGGGGCATCCAGGCAACGGTGA | -0.509 |
| ATCGAAAGGTCGAGGTTAGTATAGAGAAAGGGAA | 0.526 |
| ACTATCAGTTGAGACGAGGGCAACCGATAGGTTG | -0.0586 |
| CCTAGCAGGCCAGGGTAACTCAAGCATTTCGCTT | -1.09 |
| ATATGTAGGTTCTCGGGTCATTCAGTTTGCGCAT | 0.765 |
| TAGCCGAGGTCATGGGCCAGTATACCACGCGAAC | 0.79 |
| GCATATAGGTAATACAAGGTGAAAGTGCGATTGT | -0.0302 |
| TGTGCTAGGTCAACGATGGTCAGCTAATCTGCTA | 0.116 |
| TCGAGTAGGTTAGTCGGCGCATTCAGCCAACATA | -1.53 |
| CCTATTAGTTGACCGTAAGGGCAACCGAAGCTCG | 0.64 |
| CAAACTAGGTCCCCGGAAGGTCAAAGTCCGCATG | 0.475 |
| CCTAGTTGGTCAGGAGGTCAAACACCGGATATGA | 1.06 |
| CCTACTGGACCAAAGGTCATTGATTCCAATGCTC | 2.31 |
| TCAGACAGGTGAAGGAAACTCAGGTACGCAGTCG | 0.0545 |
| ACTCGGAGGACAAAGGTCAGACCTACGCCAGTGA | 0.528 |
| TCGAGTTGGTCAAAGGTCACACACTCGAAATGCG | 0.74 |
| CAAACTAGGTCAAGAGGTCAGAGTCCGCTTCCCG | 0.8 |
| TAGCCCAGGTCATGCGGGCCAGTATAGTGTCGGC | -0.0451 |
| CAAACTAGGTCGCAGAGGTCAAAGTCCGTGCGTA | 1.26 |
| AGAATGAGGTTATTAAGATCGGGGAATTGCGGTC | 0.139 |
| AGTCAAAGCTCATCTAGGTAACGTAAGATATGCT | -0.689 |
| TCTGCTAGGTCAACGACGGTCAGCTAATCTGCTA | 0.156 |
| AGTATGAGGTTAAGATCAGGGAAACAGAATACAT | 0.314 |
| GCTATTAGTTGAAAGGCCAACCGAATGATTCTCG | -0.435 |
| TCTTGTAGATCAAGCAGGTTAAGAAGGCCTGAGT | -0.745 |
| AGAATGAGGTTATTAAGATCACGGAATTGCGGTC | 0.0573 |
| AGAATGAGGTTATACGTAGATCGGGGAAGAAAGT | 0.366 |
| TCTATTAGTTGATTAGGGCAACAGAAACAGCGGA | 0.947 |
| AGAAAGAGGTTAAGATCAGGGAAACAGAATACAT | 0.766 |
| GCTTGTTGATCAAGGTTAAGAAAGACTAAGCTAA | -0.437 |
| AGAATGAGGTTACCAAAGATCAGGGAGACGCTTG | -0.156 |
| GCTGCTAGGTGAACTGATGGTCAGCTAAAGCTCG | -1.56 |
| AATACAGGGTCACTAGGCCAGACTAGGTACGAAT | 0.693 |
| CGAATTAGGTCAGAACAGGACAGTGAAGGATGAT | 0.086 |
| ATACCAAGGTGATCGTGAGGTCGTTGTTACTAAC | 0.361 |
| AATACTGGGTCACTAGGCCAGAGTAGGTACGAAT | 0.438 |
| CGAACTACGTCATTGACAGGACAGTGAATAGTAA | -0.182 |
| GCTAGCAGGCCATTTGGCTCACTCAATGACGGGC | -1.31 |
| CCTCGAAGGACAGAAGGTCAGAGCTGTCCGCTTT | -0.573 |

###

- Test system: PXR:RXRa (NR concentration 270 nM, RXRa partner concentration 90 nM)
- testDescription: PBM binding z-score (relative to random genomic background probes); higher = stronger binding; sequences stand for … in GC…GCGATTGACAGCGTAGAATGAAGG
Outcome: Satisfied for PBM binding z-score of at least 2; Not satisfied for anything lower.

| biosequence | categoryLabel |
| --- | --- |
| GATACAGGGTCAGCTAGAGGCGAGAGTATGGAAA | Satisfied |
| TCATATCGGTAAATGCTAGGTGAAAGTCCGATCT | Not satisfied |
| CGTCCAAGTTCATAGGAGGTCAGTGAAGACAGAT | Satisfied |
| AGAACGAGGGCAATGACTTGATAGCACGGGTGGC | Not satisfied |
| TTACCAAGGTGAGCTAAGGTCGTTGATCCAACTC | Satisfied |
| ATATGTATGTTATCGGGTCATTCAGTTTGCGCAT | Satisfied |
| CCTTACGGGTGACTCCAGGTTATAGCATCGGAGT | Not satisfied |
| CAAACTAGGTCACGAAAGGACAAAGTCGAATGAC | Satisfied |
| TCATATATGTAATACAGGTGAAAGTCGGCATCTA | Not satisfied |
| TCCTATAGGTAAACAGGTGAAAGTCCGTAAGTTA | Not satisfied |
| CCTAGTTGGTGAAGGTCACACACGCTATAGGTAC | Satisfied |
| GCTGCTAGGTCAACTGATGGTCGGCTAAAGCTCG | Not satisfied |
| TCGGGTAGGTTAGTCGGGGCATTCAGCCAACATA | Not satisfied |
| CCAGACATGTGAAAGGTAACTCAGTCTGGTACGC | Not satisfied |
| CCTGCTATGTCATGGTCAGCTAATCTACAGTATG | Not satisfied |
| GCTATTAGTTGAAAGGGAAACCGAATGATTCTCG | Not satisfied |
| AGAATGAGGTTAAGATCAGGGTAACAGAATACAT | Not satisfied |
| CCTACTGGGCCAGGGTCATTGATCAGTCAAAGCA | Satisfied |
| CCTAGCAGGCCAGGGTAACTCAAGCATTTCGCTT | Not satisfied |
| TCGAGTAGGTTACCAATGGGGCGTTCAGCTTTCT | Not satisfied |
| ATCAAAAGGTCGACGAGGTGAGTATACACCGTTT | Satisfied |
| CCTAGCAGGCCAGGGTCACTAAAGCATTTCGCTT | Satisfied |
| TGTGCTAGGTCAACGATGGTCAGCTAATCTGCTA | Not satisfied |
| CGAACTAGGTCATCCAGGACGGTGAATACATTGA | Not satisfied |
| AGAATGAGGTTACCAAAGATCAGGGACACGCTTG | Not satisfied |
| GCAGACACGTGAAACGCAGGTAACTCAGGGTGGC | Not satisfied |
| TGAATGAGGTTATAAGATCAGGGCACGTTGCAAA | Not satisfied |
| ATCTCTAGGTAAAGTTCAGGGAAAGATCGATAGA | Satisfied |
| TCGAGTAGGTTACCAATGGGGCATTGAGCTTTCT | Not satisfied |
| CCAGACAGGTGAGAGGGTAACTCAGCCTCGATTA | Not satisfied |
| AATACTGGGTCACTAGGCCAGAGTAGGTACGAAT | Not satisfied |
| ACTATTAGTGGAGACGAGGGCAACCGATAGGTTG | Not satisfied |
| ATAAGTAGGTTATCGGGTCATTCAGTTTGCGCAT | Satisfied |
| TCTTGTAGATCAACAGGAGGTTAAGCAAGATCGA | Not satisfied |
| TGAATGAGGTTAAAGACCAGGGAACGTGGCGTCG | Not satisfied |
| CGTCAAAGTTCATCTAAGGTAACGTAAAGCACGC | Satisfied |
| CGTCAAAGTTCAACTAAGGTAACGGAAAGCACGC | Satisfied |
| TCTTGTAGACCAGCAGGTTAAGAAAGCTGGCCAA | Not satisfied |
| AATACAGGGTCATCGTTGGCCAGAGTACGCACAG | Satisfied |
| ATCGAAAGGTCGAGGTGAGTGTAGAGAAAGGGAA | Satisfied |

// data source = the supplement of paper PMC6555819
